- ASSAY_SYSTEM: Tumor necrosis factor (Homo sapiens, UniProt P01375)
- Sequence (P01375 whole entry): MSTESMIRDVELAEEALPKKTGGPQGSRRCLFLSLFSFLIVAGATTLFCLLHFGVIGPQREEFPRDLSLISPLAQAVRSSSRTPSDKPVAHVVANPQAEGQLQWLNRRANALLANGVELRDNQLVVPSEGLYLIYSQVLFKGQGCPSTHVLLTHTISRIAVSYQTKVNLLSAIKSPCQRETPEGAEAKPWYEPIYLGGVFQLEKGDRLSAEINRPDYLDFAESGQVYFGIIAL
- ASSAY_OVERVIEW: TNF-alpha RELEASE: Human peripheral blood mononuclear cells (PBMC) were isolated from fresh buffy coats by density centrifugation using lymphoprep tubes (Medinor). Frozen PBMC's were washed in serum free assay buffer (RPMI1640 with 25 mM HEPES, 1% pen/strep, […], 0.5% human serum albumin) and living cells counted. Lipopolysaccharide (1 microg/ml; SIGMA) was added to the cells which were then transferred to 384 well tissue culture plates (5×105 c/ml) containing titrated test compounds. The cells were incubated for 18 hours at 37° C. in serum free assay buffer and the level of TNFalpha in the supernatant was quantitated by AlphaLISA (PerkinElmer) by measuring fluorescence intensity at 615 nm.Results were expressed as IC50 values calculated from inhibition curves using as controls the secretion in LPS stimulated wells and the secretion in cells incubated with 10 microM of a PDE4 inhibitor reference compound.
pIC50: −log10 of the molar value.
ATTRIBUTE_MEASURED: pIC50

In: So what's the measured pIC50 for this one? CC(=O)N1CC[C@@H](Nc2nc(N3CC(OC(=O)C4CCOCC4)C3)nc3c2[S@+]([O-])CC3)C1
Out: < 6.30
